These measurements were taken from patent US9944639B2.

measured_on: PI3Kδ (Homo sapiens, UniProt O00329)
Construct: endogenous in cells
Sequence (O00329 whole entry): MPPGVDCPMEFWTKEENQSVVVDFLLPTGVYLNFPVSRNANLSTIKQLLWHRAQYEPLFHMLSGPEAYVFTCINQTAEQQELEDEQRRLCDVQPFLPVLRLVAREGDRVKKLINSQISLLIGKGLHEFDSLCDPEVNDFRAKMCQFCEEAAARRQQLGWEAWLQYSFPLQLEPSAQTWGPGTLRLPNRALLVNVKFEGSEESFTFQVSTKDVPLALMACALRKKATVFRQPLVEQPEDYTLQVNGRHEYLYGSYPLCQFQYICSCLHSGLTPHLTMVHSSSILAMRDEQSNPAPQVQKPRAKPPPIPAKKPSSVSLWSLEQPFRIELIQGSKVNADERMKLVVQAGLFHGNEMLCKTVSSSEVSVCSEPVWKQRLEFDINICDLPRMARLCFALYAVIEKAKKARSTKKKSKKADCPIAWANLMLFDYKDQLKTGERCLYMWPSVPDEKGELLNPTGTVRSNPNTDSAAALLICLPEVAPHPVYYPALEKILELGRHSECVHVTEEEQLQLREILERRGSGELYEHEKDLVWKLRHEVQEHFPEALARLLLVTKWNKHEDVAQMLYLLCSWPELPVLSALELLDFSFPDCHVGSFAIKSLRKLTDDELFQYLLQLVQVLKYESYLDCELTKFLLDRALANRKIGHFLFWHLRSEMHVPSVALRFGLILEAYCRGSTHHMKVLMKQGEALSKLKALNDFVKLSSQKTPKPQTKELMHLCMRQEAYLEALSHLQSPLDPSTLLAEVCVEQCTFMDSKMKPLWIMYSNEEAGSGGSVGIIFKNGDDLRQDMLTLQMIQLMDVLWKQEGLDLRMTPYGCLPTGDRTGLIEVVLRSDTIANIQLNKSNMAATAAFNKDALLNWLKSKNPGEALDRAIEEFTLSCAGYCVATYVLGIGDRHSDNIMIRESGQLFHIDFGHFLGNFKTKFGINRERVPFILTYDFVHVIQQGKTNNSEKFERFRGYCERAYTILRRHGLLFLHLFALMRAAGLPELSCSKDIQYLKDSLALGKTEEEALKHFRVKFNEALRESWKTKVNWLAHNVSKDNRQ
Sequence (P27986 whole entry partner): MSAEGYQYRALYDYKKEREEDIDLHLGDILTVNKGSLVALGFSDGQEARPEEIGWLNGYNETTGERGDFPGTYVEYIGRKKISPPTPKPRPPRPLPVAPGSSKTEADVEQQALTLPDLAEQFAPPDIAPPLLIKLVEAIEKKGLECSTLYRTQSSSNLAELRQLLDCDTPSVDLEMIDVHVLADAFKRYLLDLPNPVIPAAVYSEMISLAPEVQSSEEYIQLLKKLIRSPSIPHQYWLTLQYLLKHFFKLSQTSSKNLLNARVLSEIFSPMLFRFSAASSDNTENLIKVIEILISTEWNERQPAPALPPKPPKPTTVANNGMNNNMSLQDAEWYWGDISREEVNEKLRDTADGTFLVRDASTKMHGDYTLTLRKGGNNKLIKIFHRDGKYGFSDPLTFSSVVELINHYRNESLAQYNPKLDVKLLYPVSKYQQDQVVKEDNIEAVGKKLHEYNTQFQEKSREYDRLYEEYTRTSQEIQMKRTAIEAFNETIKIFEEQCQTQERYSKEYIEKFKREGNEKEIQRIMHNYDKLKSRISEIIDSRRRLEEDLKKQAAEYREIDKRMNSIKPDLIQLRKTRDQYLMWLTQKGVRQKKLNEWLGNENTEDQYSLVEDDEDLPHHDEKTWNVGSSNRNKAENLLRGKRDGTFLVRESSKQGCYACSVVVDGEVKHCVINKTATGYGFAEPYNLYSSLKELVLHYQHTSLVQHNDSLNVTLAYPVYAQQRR
method_notes: Cell Based Assay for PI3Kδ (AKT phosphorylation, AlphaScreen SureFire, anti-IgM stimulated Raji cells)
condition: compounds 1 h, anti-IgM (3 μg/mL) 30 min, phosphorylation of AKT, read-out: PI3Kδ inhibition IC50
pIC50: −log10 of the molar value.
Listing of entries alongside the reported pIC50.

Use these answered entries as a reference point.
compound	measured_on	pIC50
C[C@H](Nc1nc(N)nc2[nH]cnc12)c1cc2ccc(F)cn2c(=O)c1-c1cc(F)cc(F)c1	PI3Kδ (Homo sapiens, UniProt O00329)	7.30 to 7.96
Cc1cc(F)cc(-c2c([C@H](C)Nc3ncnc(N)c3C#N)cc3ccc(F)cn3c2=O)c1	PI3Kδ (Homo sapiens, UniProt O00329)	7.30 to 7.96

QUERY: # get_value(readout='pIC50', item= `C[C@H](Nc1ncnc2cccnc12)c1cc2ccc(F)cn2c(=O)c1-c1ccccc1` )
RESULT: 8.00 to 10.00

QUERY: Further, for C[C@@H](c1cc2ccc(F)cn2c(=O)c1-c1ccccc1)n1nc(-c2cc(F)cc(NS(C)(=O)=O)c2)c2c(N)ncnc21 (single isomer, unassigned) [Compound 58a] ?
RESULT: 7.30 to 7.96

* * *

Listing of entries alongside the reported IC50.
measured_on: PI3Kδ (Homo sapiens)
Construct: endogenous in cells
method_notes: Cell Based Assay for PI3Kδ (AKT phosphorylation, AlphaScreen SureFire, anti-IgM stimulated Raji cells)
condition: compounds 1 h, anti-IgM (3 μg/mL) 30 min, phosphorylation of AKT, read-out: PI3Kδ inhibition IC50

Use these answered entries as a reference point.
compound	IC50
CC(c1cc2ccc(F)cn2c(=O)c1-c1ccccc1)n1nc(-c2cccc(O)c2)c2c(N)ncnc21 (stereo not shown)	0.0001 to 0.01 µM
CC[C@H](Nc1ncnc(N)c1C#N)c1cc2ccc(F)cn2c(=O)c1-c1ccccc1 (single isomer, unassigned) [Compound 41a]	0.011 to 0.05 µM
COc1ncc(-c2nn([C@@H](C)c3cc4ccc(F)cn4c(=O)c3-c3ccccc3)c3ncnc(N)c23)cc1NS(C)(=O)=O (single isomer, unassigned) [Compound 67a]	0.0001 to 0.01 µM

QUERY: # get_value(readout='IC50', item= Cc1cccc2cc([C@H](C)Nc3ncnc(N)c3C#N)c(-c3cc(F)cc(F)c3)c(=O)n12 (single isomer, unassigned) [Compound 17a] )
RESULT: 0.0001 to 0.01 µM

* * *

measured_on: PI3Kδ (Homo sapiens, UniProt O00329)
Construct: endogenous in cells
method_notes: Cell Based Assay for PI3Kδ (AKT phosphorylation, AlphaScreen SureFire, anti-IgM stimulated Raji cells)
condition: compounds 1 h, anti-IgM (3 μg/mL) 30 min, phosphorylation of AKT, read-out: PI3Kδ inhibition IC50
reported_property: IC50

Use these answered entries as a reference point.
compound	IC50
Cc1cccc2cc([C@H](C)Nc3nc(N)nc4[nH]cnc34)c(-c3cccc(F)c3)c(=O)n12 (single isomer, unassigned) [Compound 12a]	0.1 to 10 nM
C[C@H](Nc1ncnc(N)c1C#N)c1cc2ccc(F)cn2c(=O)c1-c1ccccc1 (single isomer, unassigned) [Compound 14a]	11 to 50 nM
C[C@H](Nc1ncnc2scnc12)c1cc2ccc(F)cn2c(=O)c1-c1ccccc1	0.1 to 10 nM

Query compound follows.
QUERY: # get_value(readout='IC50', item= Cc1cccc2cc([C@H](C)Nc3ncnc4[nH]cnc34)c(-c3cccc(F)c3)c(=O)n12 (single isomer, unassigned) [Compound 11a] )
RESULT: 0.1 to 10 nM

* * *

Listing of entries alongside the reported IC50.
measured_on: PI3Kδ (Homo sapiens, UniProt O00329)
Construct: endogenous in cells
method_notes: Cell Based Assay for PI3Kδ (AKT phosphorylation, AlphaScreen SureFire, anti-IgM stimulated Raji cells)
condition: compounds 1 h, anti-IgM (3 μg/mL) 30 min, phosphorylation of AKT, read-out: PI3Kδ inhibition IC50

compound	IC50
CC[C@H](Nc1nc(N)nc(N)c1C#N)c1cc2ccc(F)cn2c(=O)c1-c1cccc(F)c1 (single isomer, unassigned) [Compound 45a]	0.1 to 10 nM
Cc1cccc2cc([C@H](C)Nc3nc(F)nc4[nH]cnc34)c(-c3ccccc3)c(=O)n12 (single isomer, unassigned)	0.1 to 10 nM
Cc1nc(N)nc(N[C@@H](C)c2cc3ccc(F)cn3c(=O)c2-c2cccc(F)c2)c1C#N (single isomer, unassigned) [Compound 21a]	0.1 to 10 nM

QUERY: # get_value(readout='IC50', item= `C[C@H](Nc1nc(N)nc2[nH]cnc12)c1cc2ccc(F)cn2c(=O)c1-c1ccccc1` )
RESULT: 0.1 to 10 nM

QUERY: Further, for `C[C@H](Nc1ncnc(N)c1C#N)c1cc2ccc(F)cn2c(=O)c1-c1cc(F)cc(F)c1` ?
RESULT: 0.1 to 10 nM

QUERY: Further, for C[C@H](Nc1ncnc(N)c1C#N)c1cc2ccccn2c(=O)c1-c1cccc(F)c1 (single isomer, unassigned) ?
RESULT: 0.1 to 10 nM

QUERY: Further, for Cc1cccc2cc([C@H](C)Nc3ncnc(N)c3C#N)c(-c3cccc(F)c3)c(=O)n12 (single isomer, unassigned) [Compound 10a] ?
RESULT: 0.1 to 10 nM

QUERY: Further, for `C[C@H](Nc1ncnc(N)c1C#N)c1cc2ccc(F)cn2c(=O)c1-c1cccc(OC(F)(F)F)c1` ?
RESULT: 11 to 50 nM

QUERY: Further, for Cc1cccc2cc([C@H](C)Nc3nc(N)nc4[nH]cnc34)c(-c3ccccc3)c(=O)n12 (single isomer, unassigned) ?
RESULT: 0.1 to 10 nM

QUERY: Further, for Cc1c(F)ccc2cc([C@H](C)Nc3ncnc4[nH]cnc34)c(-c3ccccc3)c(=O)n12 (single isomer, unassigned) [Compound 24a] ?
RESULT: 0.1 to 10 nM

QUERY: Further, for C[C@H](Nc1ncnc2[nH]cnc12)c1cc2ccccn2c(=O)c1-c1cccc(F)c1 (single isomer, unassigned) ?
RESULT: 51 to 250 nM

QUERY: Further, for CC(c1cc2ccc(F)cn2c(=O)c1-c1ccccc1)n1nc(-c2ccc(O)c(F)c2)c2c(N)ncnc21 (centres unmarked) ?
RESULT: 11 to 50 nM

QUERY: Further, for `Cc1cccc(-c2c([C@H](C)Nc3ncnc(N)c3C#N)cc3ccc(F)cn3c2=O)c1` ?
RESULT: 11 to 50 nM

QUERY: Further, for CC(c1cc2ccc(F)cn2c(=O)c1-c1ccccc1)n1nc(-c2ccc(F)c(O)c2)c2c(N)ncnc21 (centres unmarked) ?
RESULT: 0.1 to 10 nM

* * *

measured_on: PI3Kδ (Homo sapiens, UniProt O00329)
Construct: endogenous in cells; host or cells: Raji cells
method_notes: Cell Based Assay for PI3Kδ (AKT phosphorylation, AlphaScreen SureFire, anti-IgM stimulated Raji cells)
condition: compounds 1 h, anti-IgM (3 μg/mL) 30 min, phosphorylation of AKT, read-out: PI3Kδ inhibition IC50
pIC50: −log10 of the molar value.
reported_property: pIC50

compound	reported_property	result
COc1ccc(-c2nn([C@@H](C)c3cc4ccc(F)cn4c(=O)c3-c3ccccc3)c3ncnc(N)c23)cn1 (single isomer, unassigned) [Compound 64a]	pIC50	7.30 to 7.96
C[C@H](Nc1nc(N)ncc1C#N)c1cc2ccc(F)cn2c(=O)c1-c1cccc(F)c1 (single isomer, unassigned) [Compound 20a]	pIC50	7.30 to 7.96
CC(c1cc2ccc(F)cn2c(=O)c1-c1ccccc1)n1cc(-c2cc(O)cc(F)c2)c2c(N)ncnc21 (stereo not drawn) [Compound 63]	pIC50	8.00 to 10.00
Cc1c(F)ccc2cc([C@H](C)Nc3ncnc(N)c3C#N)c(-c3cccc(F)c3)c(=O)n12 (single isomer, unassigned) [Compound 23a]	pIC50	8.00 to 10.00
C[C@H](Nc1ncnc2[nH]cnc12)c1cc2ccc(F)cn2c(=O)c1-c1cc(F)cc(F)c1 [Compound 50]	pIC50	7.30 to 7.96

Query compound follows.
QUERY: # get_value(readout='pIC50', item= CC[C@H](Nc1ncnc(N)c1C#N)c1cc2ccc(F)cn2c(=O)c1-c1cccc(F)c1 (single isomer, unassigned) [Compound 44a] )
RESULT: 7.30 to 7.96

* * *

Listing of entries alongside the reported pIC50.
measured_on: PI3Kδ (Homo sapiens, UniProt O00329)
Construct: endogenous in cells
method_notes: Cell Based Assay for PI3Kδ (AKT phosphorylation, AlphaScreen SureFire, anti-IgM stimulated Raji cells)
condition: compounds 1 h, anti-IgM (3 μg/mL) 30 min, phosphorylation of AKT, read-out: PI3Kδ inhibition IC50
pIC50: −log10 of the molar value.

Use these answered entries as a reference point.
compound	pIC50
C[C@H](Nc1nc(N)nc2[nH]cnc12)c1cc2ccc(F)cn2c(=O)c1-c1cccc(F)c1 (single isomer, unassigned) [Compound 15a]	7.30 to 7.96
C[C@H](Nc1ncnc2[nH]cc(F)c12)c1cc2ccc(F)cn2c(=O)c1-c1ccccc1 [Compound 40]	8.00 to 10.00
C[C@H](Nc1nc(N)nc(Cl)c1C#N)c1cc2ccc(F)cn2c(=O)c1-c1ccccc1 [Compound 53]	8.00 to 10.00

QUERY: # get_value(readout='pIC50', item= C[C@H](Nc1ncnc(N)c1C#N)c1cc2ccc(F)cn2c(=O)c1-c1ccc(F)cc1 [Compound 36] )
RESULT: 7.30 to 7.96

QUERY: Further, for C[C@H](Nc1ncnc(N)c1C#N)c1cc2ccc(F)cn2c(=O)c1-c1cccc(F)c1 (single isomer, unassigned) [Compound 16a] ?
RESULT: 8.00 to 10.00

QUERY: Further, for CC(c1cc2ccc(F)cn2c(=O)c1-c1ccccc1)n1nc(-c2cc(O)cc(F)c2)c2c(N)ncnc21 (stereo not shown) [Compound 59] ?
RESULT: 8.00 to 10.00

QUERY: Further, for CC[C@H](Nc1nc(N)nc2[nH]cnc12)c1cc2ccc(F)cn2c(=O)c1-c1cccc(F)c1 (single isomer, unassigned) [Compound 47b] ?
RESULT: 7.30 to 7.96
